Give logP for every item shown.
Experiment: method code G-GLC, from DOI: 10.1021/je00030a025
Keep it simple and answer with nothing but the number.

Exercise: For the compound CCCCCCCCBr , what logP is on record?
Solution: 4.89

Exercise: Which logP reading was recorded for the compound CCCCCCBr ?
Solution: 3.8

Exercise: Using the record for CCCCCCCO , report its logP.
Solution: 2.57

Exercise: Please report the recorded logP for CCC(=O)CC .
Solution: 0.99

Exercise: Form field: reported logP of CCCCCCCC
Solution: 5.18

Exercise: Which value of logP has been reported for C=CCCCCCCC in the records?
Solution: 5.15

Exercise: Quick one: logP for C#CCCCC ?
Solution: 2.73

Exercise: Fill in the blank: the reported logP of CCCCCCCCl is ____.
Solution: 4.15

Exercise: State the recorded logP for this entry: C=CCCCCC
Solution: 3.99

Exercise: Which logP value is on record for Fc1ccccc1CCl ?
Solution: 2.67

Exercise: Field request: logP | item: CCCCCCCI
Solution: 4.7

Exercise: Report logP for ClCCCBr please.
Solution: 2.18

----------
Assay: method code G-HPLC, from DOI: 10.1021/je00030a025
RESULT TYPE: logP
Keep the answer to the number alone.

Exercise: Can you share its logP? I mean this compound: O=Cc1ccco1
Solution: 0.52

Exercise: Form field: reported logP of CCCCCCC(C)=O
Solution: 2.76

Exercise: What measured logP goes with CCCCCCCC(C)=O ?
Solution: 3.18

Exercise: Quick one: logP of CCCCCc1ccccc1 ?
Solution: 4.9

Exercise: Which logP is reported for this compound? Fc1cccc(CCl)c1
Solution: 2.77

Exercise: Quick one: logP for CC(=O)OCCBr ?
Solution: 1.11

Exercise: Param item = C=CCCBr ; retrieve measured logP.
Solution: 2.53
